Parameter Dead/treated: see the listing below.
# Test system: anesthetized guinea-pig
# ASSAY_COMMENT: Inotropic effect and lethal dose, slow intravenous infusion in anesthetized guinea-pig
# Type: in vivo
# MEASUREMENT_CONDITIONS: slow i.v. infusion over 90 minutes, anesthetized guinea-pig
Where a name gives a salt, the structure may show the parent alone.

COMPOUND | Dead/treated
CC12CCC3C(CC(O)C4CC(=NOC5CCNC5)CCC43C)C1CCC2=O (single isomer, unassigned) [I-dp, hydrochloride] | 2/2
C#CC1CC2C3CCC(=O)C3(C)CCC2C2(C)CCC(=NOC3CCNC3)CC12 (mixture of isomers) [I-bb, hydrochloride] | 0/3
CC1CC2CC(=NOC3CCNC3)CCC2(C)C2CCC3(C)C(=O)CCC3C12 (mixture of isomers) [I-cl, hydrochloride] | 0/3
C=C1C[C@H]2[C@@H]3CCC(=O)[C@@]3(C)CC[C@@H]2[C@@]2(C)CCC(=NO[C@@H]3CCNC3)C[C@]12O (mixture of isomers) [I-bh, hydrochloride] | 0/3
CC12CCC3C(CC(=O)C4CC(=NOC5CCNC5)CCC43C)C1CCC2=O (mixture of isomers) [I-ae, hydrochloride] | 0/3
CC12CCC3C(CC(=NO)C4CC(=NOC5CCNC5)CCC43C)C1CCC2=O (mixture of isomers) [I-av, hydrochloride] | 0/3

====

# TESTED_TARGET: Dog Kidney Na+, K+-ATPase (Canis lupus familiaris, UniProt P50997)
# ASSAY_COMMENT: Inhibition of the enzymatic activity of purified Na+,K+-ATPase (hydrolysis of 32P-ATP)
# Type: biochemical
# MEASUREMENT_CONDITIONS: read-out: Na+, K+-ATPase Inhibition IC50
Structures can show the parent of a compound that is named as a salt.
EXPERIMENTAL_ENDPOINT: IC50 (nM)

COMPOUND | EXPERIMENTAL_ENDPOINT | REPORTED_RESULT
C=C1CC2C/C(=N/O[C@@H]3CCNC3)CC[C@]2(C)[C@H]2CC[C@]3(C)C(=O)CC[C@H]3[C@H]12.Cl (stereo partly drawn) [I-cg, hydrochloride] | IC50 | 240
C[C@]12CC[C@@H](SC3CCNC3)CC1C(=O)C[C@@H]1[C@@H]2CC[C@]2(C)C(=O)CC[C@@H]12 (mixture of isomers) [I-dc, fumarate] | IC50 | 95000
C[C@]12CCC(=NO[C@@H]3CCNC3)C[C@@H]1[C@@H](C(N)=O)C[C@@H]1[C@@H]2CC[C@]2(C)C(=O)CC[C@@H]12.Cl [I-at, hydrochloride] | IC50 | 140

====

We begin with a simple list: items and their reported IC50.
# TESTED_TARGET: Dog Kidney Na+, K+-ATPase (Canis lupus familiaris, UniProt P50997)
# ASSAY_COMMENT: Inhibition of the enzymatic activity of purified Na+,K+-ATPase (hydrolysis of 32P-ATP)
# Assay type: biochemical
# MEASUREMENT_CONDITIONS: Na+, K+-ATPase Inhibition IC50
Where a name gives a salt, the structure may show the parent alone.
EXPERIMENTAL_ENDPOINT: IC50 (µM)

MOLECULE | VALUE_UNITS | REPORTED_RESULT
CC12CCC3C(CC(=O)C4CC(=NOCC5CCCN5)CCC43C)C1CCC2=O (mixture of isomers) [I-ah, hydrochloride] | µM | 23
CC1CC2CC(=NOC3CCNC3)CCC2(C)C2CCC3(C)C(=O)CCC3C12 (stereo not drawn) [I-cn, hydrochloride] | µM | 0.34
CN1CCC(ON=C2CCC3(C)C(C2)C(=O)CC2C4CCC(=O)C4(C)CCC23)C1 (single isomer, unassigned) [I-al] | µM | 1.3
C=C1C[C@H]2[C@@H]3CCC(=O)[C@@]3(C)CC[C@@H]2[C@@]2(C)CC/C(=N\O[C@H]3CCN(C)C3)C[C@]12O | µM | 21
C=C1C[C@H]2[C@@H]3CCC(=O)[C@@]3(C)CC[C@@H]2[C@@]2(C)CCC(=NO[C@@H]3CCNC3)C[C@]12O (mixture of isomers) [I-bh, hydrochloride] | µM | 0.012
C[C@]12CC[C@H](OC(=O)C3CNC3)CC1C(=O)C[C@@H]1[C@@H]2CC[C@]2(C)C(=O)CC[C@@H]12 (stereo partly drawn) [I-cx, hydrochloride] | µM | 4.2
